- Test system: MCF7 breast
- ASSAY: NCI-60 one-dose screen, 48 h
- MEASUREMENT CONDITIONS: 10 µM unless noted
This is part of a sample that, as a whole, favours compounds with a hit. Of some 83,000 tested, about 20% had one in any assay. The source made the active and inactive calls. The calls were made as follows: active = growth percent below 10; inactive = the rest.
Valid outcomes are listed here; reply with one: active, inactive

Examples from the recorded data:
O=C(N/N=C\c1cc(Cl)ccc1O)N/N=C/c1cc(Cl)ccc1O : inactive
COc1ccc(C2NC(=O)C(C#N)c3c2sc2c(F)cccc32)cc1 (stereo unspecified) : inactive
FC(F)(F)c1ccc2c(c1)Sc1ccccc1N2 : inactive
CCN(CC)CCCC(C)Nc1c2ccc(C)cc2nc2ccc(OC)cc12 (stereo unspecified) : active
CN(C)C(=S)Sc1ccc([N+](=O)[O-])cc1[N+](=O)[O-] : active
COc1ccc(/C=C(/C2=NCCN2)n2ccc3ccccc32)cc1 : inactive
CCOC(=O)c1ccc2nc(-c3c(C)nn(-c4ccccc4)c3N3CCOCC3)[nH]c2c1 : inactive
COc1cc(-c2nc(SCCC(C)C)nc(Nc3ccc(S(N)(=O)=O)cc3)c2C#N)cc(OC)c1OC : inactive
C=C(C)[C@@H]1CC[C@]2(C)[C@H](CC=C3[C@@H]4[C@@H](C)[C@H](C)CC[C@]4(C(N)=O)CC[C@]32C)[C@@]1(C)CCC#N : active
COc1ccc2nc3ccccc3c(NCCNCCO)c2c1 : active

# next molecule below
*Q* Per the records of this test, what outcome belongs to `C=C(C)[C@@H]1CC[C@]2(C(=O)O)CC[C@]3(C)[C@H](CC[C@@H]4[C@@]5(C)C/C(=C/c6ccco6)C(=O)C(C)(C)[C@@H]5CC[C@]43C)[C@@H]12` ?
*A* active

* * *

- Tested on: OVCAR-4 ovarian
- ASSAY: NCI-60 one-dose screen, 48 h
- MEASUREMENT CONDITIONS: 10 µM
Compounds without any hit were thinned out: in the full panel of roughly 83,000, 20% have a hit. Active and inactive are the calls of the source. How the source made its calls: active means growth percent below 10; inactive means the rest.
One label from this list, please: active, inactive

Cc1cc(-c2ccc(N=Nc3c(S(=O)(=O)O)cc4cc(S(=O)(=O)O)cc(N)c4c3O)c(C)c2)ccc1N=Nc1cc(S(=O)(=O)O)c2ccccc2c1O : inactive
O=C(CCCCCCSc1nc(-c2ccc(Cl)cc2)cc(-c2ccc(Cl)cc2)n1)NO : inactive

Moving on to the next molecule.
*Q* Per the records of this test, what outcome belongs to `CCN=C1C=CC(=C(c2ccc(N(CC)CC)cc2)c2ccc(N(CC)CC)cc2)c2ccccc21` ?
*A* active

* * *

Readings of growth for the listed compounds
- System: SF-268 CNS
- ASSAY: NCI-60 one-dose screen, 48 h (100 = growth as untreated, 0 = no growth, -100 = all killed)
- MEASUREMENT CONDITIONS: 10 µM unless noted
The panel holds about 83,000 compounds, 20% with a hit somewhere; the sample as a whole holds those more often. Calls of active or inactive are those of the source. How the source made its calls: active means growth percent below 10; inactive means the rest.

CCOc1ccc(S(=O)(=O)Nc2ccc3c(c2)N(S(=O)(=O)CC)CCC3)cc1 : 74.1% (inactive)
O=C(Nc1cccc2ccccc12)c1cc2ccccc2cc1O : 23.8% (inactive)
Nc1cc(Cl)cc2cccnc12 : 88% (inactive)
CCc1ccc(NC(=O)N[C@@H](Cc2cc(F)cc(F)c2)C(=O)N[C@@H]2C(=O)N3C[C@H](O)C[C@H]3C(=O)N3CCOC[C@H]3C(=O)N[C@@H](C)C(=O)N3C[C@H](C)C[C@H]3C(=O)O[C@H]2C)cc1 : 29.1% (inactive)
c1coc2occoc=2o1 : 105% (inactive)

*Q* Give the measured growth of `c1ccc(-c2nc(N3CCCNCC3)c3nc(-c4ccccc4)oc3n2)cc1` .
*A* 52% (inactive)

*Q* Tell me the measured growth of Cc1ccc2c(c1)C(C)Cc1c(Cl)ncnc1N2C (stereo not given) , please.
*A* 22.6% (inactive)

*Q* May I ask what growth has been recorded for `O=C1Nc2ccccc2/C1=C/C(=O)c1ccc(N2CCCC2)cc1` ?
*A* 21.9% (inactive)
